System: biotinyl-Ile-oxazolone
Test: self-aminoacylation, catalytic enhancement (BIO) (fold over background); higher = more active; k-Seq, kA / k0A0; sequences stand for … in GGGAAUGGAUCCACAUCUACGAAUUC…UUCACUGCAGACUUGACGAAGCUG
Variants at the floor of the assay were thinned out.
The sequences listed here are annotated with their self-aminoacylation.
Answer with a bare number; do not write a unit.

Solved cases below.
>>> recorded_number("UCACACUUCGAGCAAUCGGUC [Fam1B.1 aminoacylation ribozyme variant]")
0.91
>>> recorded_number("AUUCACCUAGGUCAUCCAGUG [Fam2.2 aminoacylation ribozyme variant]")
5.19
>>> recorded_number("AUUCACCUAGGUCAUAGCGUG [Fam2.2 aminoacylation ribozyme variant]")
2.46

Exercise: For CUACUUCAAACAAUAGGUCUA [Fam1A.1 aminoacylation ribozyme variant] , what is its reported self-aminoacylation?
Key: 0.755
